Target: Aurora 2 (Homo sapiens, UniProt O14965)
Construct: A complete recombinant Aurora 2 enzyme, the N-terminal end of which was labeled with histidine; His tag (N)
Sequence (O14965 whole entry): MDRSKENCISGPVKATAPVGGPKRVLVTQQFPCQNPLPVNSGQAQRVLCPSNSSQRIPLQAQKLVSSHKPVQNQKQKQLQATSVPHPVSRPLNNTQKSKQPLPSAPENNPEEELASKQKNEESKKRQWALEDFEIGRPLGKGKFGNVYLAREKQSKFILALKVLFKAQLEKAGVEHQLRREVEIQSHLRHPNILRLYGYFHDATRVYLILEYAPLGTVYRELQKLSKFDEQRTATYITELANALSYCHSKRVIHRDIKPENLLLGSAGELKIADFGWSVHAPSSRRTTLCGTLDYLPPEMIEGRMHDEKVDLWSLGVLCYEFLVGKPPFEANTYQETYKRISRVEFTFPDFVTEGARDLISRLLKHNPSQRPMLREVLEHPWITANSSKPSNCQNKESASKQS
Test: Aurora 2 kinase radioactivity scintillation test
Description: The inhibitory effect of the compounds toward the kinase Aurora 2 is determined via a radioactivity scintillation test. […] The kinase activity of Aurora 2 is measured by scintillation on a microplate saturated with nickel chelate (New England Nuclear, SMP107 model). […] The radioactivity is measured in each well using a Packard Model Top Count NXT machine. […]
pIC50: −log10 of the molar value. Where a name gives a salt, the structure may show the parent alone.
PROPERTY NAME: pIC50

# COMPOUND, PROPERTY NAME, NUMERIC VALUE
measured = [
    ("CC(C)(O)CNc1ccc(S(=O)(=O)Oc2ccc3nc(NC(=O)CCc4cccnc4)sc3c2)cc1", "pIC50", 5.98),
]

1 = CC(C)C(=O)Nc1nc2ccc(OS(=O)(=O)c3ccc(NCCN(C(C)C)C(C)C)cc3)cc2s1 [Example 55, hydrochloride]
2 = CCN(CC)CCC(=O)Nc1nc2ccc(OS(=O)(=O)c3cccs3)cc2s1 [Example 33g]
3 = COCC(=O)Nc1nc2ccc(OS(=O)(=O)c3ccc(NCCN(C(C)C)C(C)C)cc3)cc2s1
4 = O=C(CCC1CCNCC1)Nc1nc2ccc(OS(=O)(=O)c3cccs3)cc2s1 [Example 33a, trifluoroacetic acid]
5 = CC(C)(CNc1ccc(S(=O)(=O)Oc2ccc3nc(NC(=O)C4CC4)sc3c2)cc1)OP(=O)(O)O
Prompt: Arrange the 5 compounds by rising pIC50, starting with the smallest. Dear reader, please state the labels in the requested order.
Completion: 1, 3, 2, 4, 5
